Recorded values, source patent US20100298141A1.

System: bermudagrass
assay.protocol: Test F preemergence test
Type: in vivo, Cynodon dactylon
experimental.context: 62 g ai/ha, Preemergence; scale 0 to 100
Reported Bermudagrass plant response rating by item:
# answer = number (no unit)

Worked examples, 4 molecules total:
molecule	test.value
Cc1cc[n+]([O-])c([S+]([O-])Cc2c(C(F)(F)F)nn(C)c2OC(F)F)c1 (stereo not shown)	80
Cn1nc(OC(F)F)c(CS(=O)(=O)c2cccc[n+]2[O-])c1C(F)(F)F	90
CCn1nc(C(F)(F)F)c(CS(=O)(=O)c2cccc[n+]2[O-])c1OCC(F)(F)F	95
CCc1cc[n+]([O-])c(S(=O)(=O)Cc2c(C(F)(F)F)nn(C)c2OCC(F)(F)F)c1	80

INPUT: State the recorded Bermudagrass plant response rating for this entry: Cc1cc[n+]([O-])c(S(=O)(=O)C(Cl)c2c(C(F)(F)F)nn(C)c2Cl)c1 (racemic)
OUTPUT: 80

====

System: johnsongrass
assay.protocol: Test C pre-/postemergence test
Type: in vivo, Sorghum halepense
experimental.context: 62 g ai/ha, Preemergence; scale 0 to 100
Reported Johnsongrass plant response rating by item:
# answer = number (no unit)

compound	target.or.system	Johnsongrass plant response rating
Cn1nc(C(F)(F)F)c(C[S+]([O-])c2ccc(Cl)c[n+]2[O-])c1OCC(F)F (stereo not drawn) [Compound 85]	johnsongrass	85

INPUT: State the recorded Johnsongrass plant response rating for this entry: Cc1cc[n+]([O-])c(S(=O)(=O)Cc2c(C(F)(F)F)nn(C)c2OCC(F)(F)F)c1 [Compound 31]
OUTPUT: 100

INPUT: Same question, CC(c1c(C(F)(F)F)nn(C)c1OC(F)F)S(=O)(=O)c1cc(C(C)(C)C)cc[n+]1[O-] (racemic) [Compound 26] this time
OUTPUT: 85

INPUT: Same question, Cn1nc(C(F)(F)F)c(C(Cl)S(=O)(=O)c2cccc[n+]2[O-])c1OC(F)F (stereo not drawn) [Compound 51] this time
OUTPUT: 95

INPUT: Same question, CCn1nc(C(F)(F)F)c(C[S+]([O-])c2cccc[n+]2[O-])c1OCC(F)(F)F (racemic) [Compound 65] this time
OUTPUT: 100

INPUT: Same question, Cc1cc([S+]([O-])Cc2c(C(F)(F)F)nn(C)c2OCC(F)(F)F)[n+]([O-])cc1Cl (stereo not drawn) [Compound 70] this time
OUTPUT: 100

====

Reported Barnyardgrass plant response rating by item:
System: barnyardgrass
assay.protocol: Test A pre-/postemergence greenhouse test
Assay type: in vivo, Echinochloa crus-galli
experimental.context: Preemergence, 125 g ai/ha; 0 to 100 scale, 0 no effect, 100 complete control
# answer = number (no unit)

molecule	Barnyardgrass plant response rating
CC(Oc1c(C[S+]([O-])c2ccc(Cl)c[n+]2[O-])c(C(F)(F)F)nn1C)C(F)(F)F (stereo not shown)	90
Cn1nc(C(F)(F)F)c(C[S+]([O-])c2ccc(F)c[n+]2[O-])c1OC(F)F (stereo not shown)	90
Cc1cc[n+]([O-])c(S(=O)(=O)Cc2c(C(F)(F)F)nn(C)c2OCC(F)(F)C(F)(F)F)c1	60

Let's switch to this molecule now.
INPUT: State the recorded Barnyardgrass plant response rating for this entry: Cn1nc(C(F)(F)F)c(C[S+]([O-])c2cccc[n+]2[O-])c1OCC(F)F (stereo not shown)
OUTPUT: 80
